test system: Danio rerio larvae (5 dpf); experiment: excitability to 1-s acoustic pulses, difference vs DMSO (percentage points (treated minus DMSO)); higher = more of the behaviour than the DMSO vehicle control; details: 10 µM; exposure time: 3 h pre-incubation + 3 h imaging
Counter-ions that a name gives are not always drawn.
Definition: the class of an entry is the range in low band (below 1), middle band (1 to below 8), high band (8 or more) that contains its excitability to 1-s acoustic pulses.

input: Which class does `CC(=O)Nc1ccc(O)cc1` fall in?
output: low band

input: Textbook exercise: identify the category of the molecule given here, C[C@]12CC[C@@H]3c4ccc(O)cc4C[C@@H](CCCCCCCCC[S+]([O-])CCCC(F)(F)C(F)(F)F)[C@H]3[C@@H]1CC[C@@H]2O (stereo partly drawn) , according to its measured value.
output: middle band

input: Category of `CCCc1nc(C(C)(C)O)c(C(=O)O)n1Cc1ccc(-c2ccccc2-c2nnn[nH]2)cc1` , please.
output: low band

input: Textbook exercise: identify the category of the molecule given here, OCCOCCN1CCN(C2=Nc3ccccc3Sc3ccccc32)CC1 [Quetiapine hemifumarate] , according to its measured value.
output: high band

input: Into which bin does this molecule go? CCOc1cc(CC(=O)N[C@@H](CC(C)C)c2ccccc2N2CCCCC2)ccc1C(=O)O [Repaglinide]
output: high band

input: Assign a category based on measured excitability to 1-s acoustic pulses for CC(C)(C)NC(=O)[C@@H]1C[C@@H]2CCCC[C@@H]2CN1C[C@@H](O)[C@H](Cc1ccccc1)NC(=O)[C@H](CC(N)=O)NC(=O)c1ccc2ccccc2n1 [Saquinavir mesylate] and give only the class name.
output: high band

input: Note: place this molecule into its band. Item: `C#C[C@]1(O)CC[C@H]2[C@@H]3CCC4=CC(=O)CC[C@@H]4[C@H]3CC[C@@]21CC`
output: middle band

input: Hi there! Could you help me figure out the category for CN(C)CC/C=C1/c2ccccc2COc2ccc(CC(=O)O)cc21 [Olopatadine hydrochloride] please?
output: middle band

input: Determine which band this molecule sits in: OCc1cc(C(O)CNCCCCCCOCCCCc2ccccc2)ccc1O (stereo not drawn) [Salmeterol xinafoate]
output: high band

input: Categorize the following entry: COCCc1ccc(OCC(O)CNC(C)C)cc1 (stereo not drawn) [Metoprolol tartrate]
output: low band

input: Given CN[C@H]1CC[C@@H](c2ccc(Cl)c(Cl)c2)c2ccccc21 [Sertraline hydrochloride] , name the class its excitability to 1-s acoustic pulses places it in.
output: high band

input: Please let me know in which category the item Clc1ccc(COC(Cn2ccnc2)c2ccc(Cl)cc2Cl)c(Cl)c1 (stereo not drawn) [Miconazole nitrate] belongs.
output: low band

input: Form field 'band' for `O=C1CCc2cc(OCCCCc3nnnn3C3CCCCC3)ccc2N1`
output: middle band

input: Hi, small favor: classify CCCN(CCc1cccs1)[C@H]1CCc2c(O)cccc2C1 [Rotigotine hydrochloride] by its excitability to 1-s acoustic pulses when you get a moment.
output: high band

input: Assign a category based on measured excitability to 1-s acoustic pulses for COc1ccccc1OCCNCC(O)COc1cccc2[nH]c3ccccc3c12 (stereo not drawn) and give only the class name.
output: high band

input: Lab note: sort `CN/C(=N\CCSCc1nc[nH]c1C)NC#N` into the matching excitability to 1-s acoustic pulses band.
output: low band

input: Category of `Cn1cnc([N+](=O)[O-])c1Sc1ncnc2[nH]cnc12` , please.
output: low band

input: Class label required: `Cc1nc(Nc2ncc(C(=O)Nc3c(C)cccc3Cl)s2)cc(N2CCN(CCO)CC2)n1`
output: high band

input: Kindly identify the class of `O=c1[nH]c(=O)n([C@H]2C[C@H](O)[C@@H](CO)O2)cc1C(F)(F)F` .
output: middle band

input: Hi, small favor: classify `CCOc1nc2cccc(C(=O)O)c2n1Cc1ccc(-c2ccccc2-c2noc(=O)[nH]2)cc1` by its excitability to 1-s acoustic pulses when you get a moment.
output: low band

input: // bin(item) where item = `CNC(=O)c1cc(Oc2ccc(NC(=O)Nc3ccc(Cl)c(C(F)(F)F)c3)cc2)ccn1`
output: high band

input: Which class does `COC(c1ccccc1)(c1ccccc1)[C@H](Oc1nc(C)cc(C)n1)C(=O)O` fall in?
output: low band

input: Kindly identify the class of CC(=O)Oc1cc2c(s1)CCN(C(C(=O)C1CC1)c1ccccc1F)C2 (stereo not drawn) .
output: middle band

input: Place this molecule in its band: C[C@]12CCC(=O)C=C1CC[C@@H]1[C@@H]2[C@@H](O)C[C@@]2(C)[C@H]1CC[C@]2(O)C(=O)CO [Hydrocortisone]
output: middle band

input: Band of `COc1ccccc1Oc1c(NS(=O)(=O)c2ccc(C(C)(C)C)cc2)nc(-c2ncccn2)nc1OCCO` ?
output: low band

input: Field: class (excitability to 1-s acoustic pulses) — entry: CN1CCC[C@@H]1Cc1c[nH]c2ccc(CCS(=O)(=O)c3ccccc3)cc12 [Eletriptan hydrobromide]
output: middle band

input: Exam item: assign `CNC(=O)c1ccccc1Sc1ccc2c(/C=C/c3ccccn3)n[nH]c2c1` to the correct category.
output: middle band

input: Category of NC(=O)N1c2ccccc2C=Cc2ccccc21 [Carbamazepine] , please.
output: low band

input: Each molecule maps to one class by excitability to 1-s acoustic pulses. Which class for `Clc1ccccc1C(c1ccccc1)(c1ccccc1)n1ccnc1` ?
output: high band

input: Form: Item = CC1(C)O[C@@H]2[C@@H](CO[C@@]3(COS(N)(=O)=O)OC(C)(C)O[C@@H]23)O1 [Topiramate] ; Class = ?
output: middle band

input: Class (by measured excitability to 1-s acoustic pulses) for `CC[C@H](C)C(=O)O[C@H]1C[C@@H](C)C=C2C=C[C@H](C)[C@H](CC[C@@H]3C[C@@H](O)CC(=O)O3)[C@H]21`
output: high band

Origin of the recorded values: the supplement of paper PMC9023506
